Reference for the values: patent US8586632B2

- Test system: cultured rat trigeminal neurons
- Assay Method Text: Intracellular calcium level in cultured rat trigeminal neurons (ratiometric Fura2 imaging)
- Format: cell-based
- Set-up: key: The highest scale (+++) was assigned to the analogs that had approximately the same magnitude of response and excited the same number of neurons as oleocanthal; ++ responses were assigned to analogs that elicited intermediate responses to an intermediated number of cells; The + responses were weak but detectable and were observed in very few cells; No detectable response is indicated by 0
- Settings: single concentration 5 micromolar; response relative to oleocanthal
Readout: TG Neuron Activation

Below: 5 molecules and their reported TG Neuron Activation.
{"columns": ["Molecule", "Result"],
 "data": [
  ["C/C=C(/C=O)[C@@H](CC=O)CC(=O)OCc1ccc(O)cc1 [Analog 13]", "+"],
  ["C/C=C(/C=O)[C@@H](CC=O)CC(=O)OC [Analog 6]", "++"],
  ["C/C=C(/C=O)[C@@H](CC=O)CC(=O)OCCc1ccc(O)c(O)c1 [Analog 11, 4-DHPEA-EDA]", "+++"],
  ["C/C=C(/C=O)[C@@H](CCO)CC(=O)OCCc1ccc(O)cc1 [Analog 9]", "+"],
  ["C/C=C(/C=O)[C@@H](CC=O)CC(=O)OCCCCC [Analog 7]", "+++"]
]}

TG Neuron Activation for C/C=C(/C=O)[C@@H](CC=O)CC(=O)OCCc1cccc(O)c1 [Analog 4] is +++

TG Neuron Activation for C/C=C(/C=O)[C@@H](CC=O)CC(=O)OCCc1ccc(O)cc1 [Oleocanthal (−)] is +++

TG Neuron Activation for CC[C@@H](C=O)[C@@H](CC=O)CC(=O)OCCc1ccc(O)cc1 [Analog 12] is 0

TG Neuron Activation for C/C=C1\[C@H](CC(=O)OCCc2ccc(O)cc2)C[C@@H](O)[C@H]1O [Analog 5] is 0

* * *

- System: cultured rat trigeminal neurons
- Assay Method Text: Intracellular calcium level in cultured rat trigeminal neurons (ratiometric Fura2 imaging)
- Format: cell-based
- Parameters: key: The highest scale (+++) was assigned to the analogs that had approximately the same magnitude of response and excited the same number of neurons as oleocanthal; ++ responses were assigned to analogs that elicited intermediate responses to an intermediated number of cells; The + responses were weak but detectable and were observed in very few cells; No detectable response is indicated by 0
- Settings: single concentration 5 micromolar; response relative to oleocanthal
Readout: TG Neuron Activation

{"columns": ["Structure As Smiles", "TG Neuron Activation"],
 "data": [
  ["C/C=C(/CO)[C@@H](CCO)CC(=O)OCCc1ccc(O)cc1", 0],
  ["C/C=C(/C=O)[C@@H](CC=O)CC(=O)OCCc1ccccc1O", "+++"],
  ["C/C=C(/C=O)[C@@H](CC=O)CC(=O)OCCCc1ccc(O)cc1", "+++"],
  ["C/C=C(/C=O)[C@@H](CC=O)CC(=O)OCCc1ccc(F)cc1", "+++"]
]}

// next item, TG Neuron Activation requested
TG Neuron Activation for C/C=C(/C=O)[C@@H](CC=O)CC(=O)OCCc1ccccc1 is +++
